- target: GPR39 (Homo sapiens, UniProt O43194)
- Sequence (O43194 whole entry): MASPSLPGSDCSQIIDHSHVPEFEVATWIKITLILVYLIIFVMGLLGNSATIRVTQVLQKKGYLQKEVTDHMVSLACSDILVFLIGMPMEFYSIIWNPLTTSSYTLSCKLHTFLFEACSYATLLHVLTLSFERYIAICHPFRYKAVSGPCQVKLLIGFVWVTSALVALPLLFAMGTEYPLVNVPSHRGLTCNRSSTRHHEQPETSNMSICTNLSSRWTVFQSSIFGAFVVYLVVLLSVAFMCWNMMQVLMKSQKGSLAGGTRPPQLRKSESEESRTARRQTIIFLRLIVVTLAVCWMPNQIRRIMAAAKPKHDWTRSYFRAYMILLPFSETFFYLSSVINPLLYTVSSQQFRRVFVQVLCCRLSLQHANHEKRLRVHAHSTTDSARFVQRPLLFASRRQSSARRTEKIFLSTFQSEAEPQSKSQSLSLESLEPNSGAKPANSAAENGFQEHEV
- test_name: luciferase assay system (SRE luciferase reporter gene, CV-1 cells expressing GPR39)
- Type: cell-based
- Set-up: expressed in transfected cells; host or cells: CV-1 fibroblast cell line (Korea Cell Line Bank), adenoviral transduction at 50 MOI
Square brackets hold non-standard residues; d marks the D form. Peptide text beside a SMILES is read from it. * marks the point of attachment. His(Trt) = N[C@@H](Cc1cn(C(c2ccccc2)(c2ccccc2)c2ccccc2)cn1)C(=O)O; Octanoyl = CCCCCCCC(=O)*
Values of ECmax (−fold induction over basal) greater than or equal to 20 fold induction over basal map to Criterion met; values below map to Criterion not met.

Item C=C(CCCCCCC)NCCCC[C@H](NC(=O)[C@@H](N)Cc1cn(C(c2ccccc2)(c2ccccc2)c2ccccc2)cn1)C(=O)N[C@H](Cc1ccc(Cl)cc1)C(=O)N[C@@H](Cc1ccc(O)cc1)C(=O)O with ECmax (−fold induction over basal) of 20 fold induction over basal or above?
Criterion met

Item CCCCCCCC(=O)NCCCC[C@H](N)C(=O)N[C@@H](Cc1cn(C(c2ccccc2)(c2ccccc2)c2ccccc2)cn1)C(=O)N[C@@H](Cc1ccccc1)C(=O)N[C@@H](Cc1ccc(O)cc1)C(=O)O [HKFY-55] (H-K(Octanoyl)[His(Trt)]FY-OH) with ECmax (−fold induction over basal) of 20 fold induction over basal or above?
Criterion not met

Item CCCCCCCC(=O)NCCCC[C@H](NC(=O)[C@@H](N)CC1=CN(CCC2CCCCC2)CN1CCC1CCCCC1)C(=O)N[C@@H](Cc1ccccc1)C(=O)N[C@@H](Cc1ccc(O)cc1)C(=O)O with ECmax (−fold induction over basal) of 20 fold induction over basal or above?
Criterion not met

Item CCCCCCCC(=O)NCCCC[C@H](NC(=O)[C@@H](N)Cc1cn(C(c2ccccc2)(c2ccccc2)c2ccccc2)cn1)C(=O)N[C@@H](Cc1ccccc1)C(=O)N[C@@H](Cc1ccc(O)cc1)C(=O)N[C@@H](Cc1c[nH]cn1)C(=O)N[C@@H](CCC(N)=O)C(=O)N[C@@H](CCC(N)=O)C(=O)N[C@@H](C)C(=O)N[C@@H](CCCNC(=N)N)C(=O)N[C@@H](Cc1ccccc1)C(N)=O [HKFY-42] (H-[His(Trt)]K(Octanoyl)FYHQQARF-NH2) with ECmax (−fold induction over basal) of 20 fold induction over basal or above?
Criterion not met

Item CCCCCCCC(=O)NCCCC[C@H](NC(=O)[C@@H](N)Cc1cn(C23CC4CC(CC(C4)C2)C3)cn1)C(=O)N[C@@H](Cc1ccccc1)C(=O)N[C@@H](Cc1ccc(O)cc1)C(=O)O with ECmax (−fold induction over basal) of 20 fold induction over basal or above?
Criterion not met
